target: CYP3A4 (Homo sapiens, UniProt P08684); construct: Following the addition of human liver microsomes (HLM) and specific substrates; from tissue; host or cells: human liver microsomes; assay: Cytochrome P450 inhibition assay in human liver microsomes (testosterone substrate); assay type: in vitro ADME; details: pH 7.4, testosterone substrate, N = 3, read-out: CYP3A4 IC50 [lower and upper 95%]
Sequence (P08684 whole entry): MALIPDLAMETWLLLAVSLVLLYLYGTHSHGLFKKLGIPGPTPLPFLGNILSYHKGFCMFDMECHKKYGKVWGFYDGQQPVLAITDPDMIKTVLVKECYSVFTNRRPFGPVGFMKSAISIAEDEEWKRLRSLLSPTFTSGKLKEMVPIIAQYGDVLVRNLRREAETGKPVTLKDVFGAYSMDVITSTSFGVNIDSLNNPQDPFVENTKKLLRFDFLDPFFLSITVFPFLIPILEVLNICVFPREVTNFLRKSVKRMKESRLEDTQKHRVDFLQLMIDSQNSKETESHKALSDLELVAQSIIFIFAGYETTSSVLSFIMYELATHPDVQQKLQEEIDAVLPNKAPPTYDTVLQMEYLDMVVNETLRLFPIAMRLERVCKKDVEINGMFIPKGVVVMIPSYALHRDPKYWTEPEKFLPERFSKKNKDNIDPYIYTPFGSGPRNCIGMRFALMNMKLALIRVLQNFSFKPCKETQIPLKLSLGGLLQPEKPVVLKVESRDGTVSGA
quantity-name: IC50 at 15 min

Ask | What does the record list as IC50 at 15 min for CC(C)C[C@H](NC(=O)[C@H](CC(C)C)NC(=O)[C@H](Cc1ccc(O)cc1)NC(=O)CNC(=O)[C@H](C)NC(=O)[C@H](CO)NC(=O)[C@H](CC(N)=O)NC(=O)[C@H](CC(C)C)NC(=O)[C@@H](NC(=O)[C@H](Cc1c[nH]c2ccccc12)NC(=O)CN)[C@@H](C)O)C(=O)NCC(=O)N1CCC[C@H]1C(=O)N[C@@H](Cc1cnc[nH]1)C(=O)N[C@@H](C)C(=O)O [GAL (1–15), Galanin (1–15)] ?
Reply | > 23 µM

###

biological target: CYP2C9 (Homo sapiens); assay: Cytochrome P450 inhibition assay in human liver microsomes (diclofenac substrate); conditions: human, microsomes, pH 7.4
Sequence (P11712 whole entry): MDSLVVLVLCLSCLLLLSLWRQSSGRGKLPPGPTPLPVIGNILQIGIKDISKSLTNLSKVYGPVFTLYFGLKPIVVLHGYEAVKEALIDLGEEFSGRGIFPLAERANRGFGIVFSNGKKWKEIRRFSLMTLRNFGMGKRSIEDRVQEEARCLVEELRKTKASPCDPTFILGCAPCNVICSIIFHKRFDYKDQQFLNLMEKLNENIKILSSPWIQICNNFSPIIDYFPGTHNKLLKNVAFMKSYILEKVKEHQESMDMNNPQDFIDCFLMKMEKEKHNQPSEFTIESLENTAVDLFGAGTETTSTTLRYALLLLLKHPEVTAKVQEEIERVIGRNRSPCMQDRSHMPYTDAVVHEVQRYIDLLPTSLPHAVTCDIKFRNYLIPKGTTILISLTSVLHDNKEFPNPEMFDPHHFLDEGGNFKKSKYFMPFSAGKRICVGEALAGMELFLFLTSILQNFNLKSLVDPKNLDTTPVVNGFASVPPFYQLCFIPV
quantity-name: IC50 at 45 min

Ask | What does the record list as IC50 at 45 min for CC(C)C[C@H](NC(=O)[C@H](CC(C)C)NC(=O)[C@H](Cc1ccc(O)cc1)NC(=O)CNC(=O)[C@H](C)NC(=O)[C@H](CO)NC(=O)[C@H](CC(N)=O)NC(=O)[C@H](CC(C)C)NC(=O)[C@@H](NC(=O)[C@H](Cc1c[nH]c2ccccc12)NC(=O)CN)[C@@H](C)O)C(=O)NCC(=O)N1CCC[C@H]1C(=O)N[C@@H](Cc1cnc[nH]1)C(=O)N[C@@H](C)C(=O)O [GAL (1–15), Galanin (1–15)] ?
Reply | > 23 µM

###

target: CYP2D6 (Homo sapiens); assay: Cytochrome P450 inhibition assay in human liver microsomes (dextromethorphan substrate); details: human, microsomes, pH 7.4
Sequence (P10635 whole entry): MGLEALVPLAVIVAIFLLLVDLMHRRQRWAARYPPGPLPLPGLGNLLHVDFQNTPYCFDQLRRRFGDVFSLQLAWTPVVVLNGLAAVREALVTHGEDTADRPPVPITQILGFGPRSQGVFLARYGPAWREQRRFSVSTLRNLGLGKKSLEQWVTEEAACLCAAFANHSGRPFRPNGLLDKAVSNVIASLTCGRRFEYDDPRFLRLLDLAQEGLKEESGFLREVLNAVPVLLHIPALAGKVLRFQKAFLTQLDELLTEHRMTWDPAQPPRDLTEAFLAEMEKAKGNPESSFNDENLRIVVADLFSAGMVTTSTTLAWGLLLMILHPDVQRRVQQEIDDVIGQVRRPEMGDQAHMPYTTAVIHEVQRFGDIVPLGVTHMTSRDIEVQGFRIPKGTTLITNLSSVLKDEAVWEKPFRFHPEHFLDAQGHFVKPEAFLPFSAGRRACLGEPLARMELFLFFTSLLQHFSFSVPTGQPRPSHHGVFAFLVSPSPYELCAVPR
quantity-name: IC50 at 30 min

Ask | What does the record list as IC50 at 30 min for CC(C)C[C@H](NC(=O)[C@H](CC(C)C)NC(=O)[C@H](Cc1ccc(O)cc1)NC(=O)CNC(=O)[C@H](C)NC(=O)[C@H](CO)NC(=O)[C@H](CC(N)=O)NC(=O)[C@H](CC(C)C)NC(=O)[C@@H](NC(=O)[C@H](Cc1c[nH]c2ccccc12)NC(=O)CN)[C@@H](C)O)C(=O)NCC(=O)N1CCC[C@H]1C(=O)N[C@@H](Cc1cnc[nH]1)C(=O)N[C@@H](C)C(=O)O [GAL (1–15), Galanin (1–15)] ?
Reply | > 23 µM

Hello, the source for this data is paper PMC12689952, in case you need it.
